property: melting point

See these solved cases before continuing.
COc1ccc(-c2nc(NC(=O)c3ccc(OC)cc3OC)sc2Cc2ccccc2)cc1 [Example 35] ... 196 to 197 °C
COc1ccc(-c2nc(NC(=O)c3ccc(F)cc3)sc2Cc2ccc([N+](=O)[O-])cc2)cc1 [Example 10] ... 188 to 189 °C
COc1ccc(-c2nc(NC(=O)c3ccc(OC)c(OC)c3)sc2C)cc1 [Example 54] ... 174 to 175 °C

Input: GET /values?readout=melting point&item= O=C(Nc1nc(-c2ccc(F)cc2)c(Cc2ccc([N+](=O)[O-])cc2)s1)c1cc(F)cc(F)c1 [Example 18]
Output: 216 to 218 °C

Input: Need melting point of COc1ccc(-c2nc(NC(=O)CCc3ccc(OC)c(OC)c3)sc2Cc2ccccc2)cc1 [Example 68] , thanks.
Output: 142 to 143 °C

Input: Recorded melting point of COc1ccc(-c2nc(NC(=O)c3cc(F)cc(F)c3)sc2Cc2ccccc2)cc1 [Example 16] , please.
Output: 154 to 155 °C

Source: patent US8053581B2
